Values compiled from ChEMBL document CHEMBL2040785.

Reported MIC values for a set of compounds
Test system: Candida albicans
method_summary: Antifungal activity against Candida albicans MTCC 183 after 48 hrs by serial dilution method
Type: functional
condition_notes: MTCC 183, 48 h
test_readout: MIC

INSERT INTO measurements (compound, experimental_result) VALUES
  ('O=C(CCCCC(=O)OCc1cn(Cc2ccccc2)nn1)OCc1cn(Cc2ccccc2)nn1', '12.8 µM'),
  ('O=C(CCC(=O)OCc1cn(Cc2ccccc2)nn1)OCc1cn(Cc2ccccc2)nn1', '13.5 µM'),
  ('O=C(CCCC(=O)OCc1cn(Cc2ccccc2)nn1)OCc1cn(Cc2ccccc2)nn1', '13.5 µM'),
  ('O=C(CC(=O)OCc1cn(Cc2ccccc2)nn1)OCc1cn(Cc2ccccc2)nn1', '14 µM'),
  ('O=C(OCc1cn(CCc2ccccc2)nn1)c1cccc(C(=O)OCc2cn(CCc3ccccc3)nn2)n1', '23.3 µM'),
  ('O=C(CC(=O)OCc1cn(CCc2ccccc2)nn1)OCc1cn(CCc2ccccc2)nn1', '26.3 µM'),
  ('O=C(OCc1cn(Cc2ccccc2)nn1)c1cccc(C(=O)OCc2cn(Cc3ccccc3)nn2)n1', '12.3 µM'),
  ('OC(Cn1cncn1)(Cn1cncn1)c1ccc(F)cc1F [FLUCONAZOLE]', '10.2 µM'),
  ('O=C(CCCCC(=O)OCc1cn(CCc2ccccc2)nn1)OCc1cn(CCc2ccccc2)nn1', '12.1 µM'),
  ('O=C(OCc1cn(CCc2ccccc2)nn1)c1cccc(C(=O)OCc2cn(CCc3ccccc3)nn2)c1', '23.3 µM'),
  ('O=C(CCCC(=O)OCc1cn(CCc2ccccc2)nn1)OCc1cn(CCc2ccccc2)nn1', '24.9 µM'),
  ('O=C(OCc1cn(CCc2ccccc2)nn1)c1ccc(C(=O)OCc2cn(CCc3ccccc3)nn2)cc1', '23.3 µM'),
  ('O=C(CCC(=O)OCc1cn(CCc2ccccc2)nn1)OCc1cn(CCc2ccccc2)nn1', '12.8 µM');
